Test system: UACC-62
assay-remarks: Growth inhibitory concentration required against human melanoma UACC-62 cancer cell line
Format: functional
Classify: criterion met when GI50 is strictly less than 10 µM; criterion not met when GI50 is not.

compound	tested-system	label-class
C/C(COc1cc2c(cc1O)CC[C@@H]1[C@@H]2CC[C@]2(C)[C@@H](O)CC[C@@H]12)=N/O	UACC-62	criterion not met

Continue with the compound presented below.
GI50 under 10 µM? Item: `CC#Cc1cc2c(cc1O)CC[C@@H]1[C@@H]2CC[C@@]2(C)[C@H]1CC[C@]2(C)O`
criterion met

---

Quick reference: GI50 of the listed items.
Tested on: HCT-116
assay-remarks: Growth inhibitory concentration against human colon cancer HCT116 cell line
Format: functional
Record the value in µM, omitting the unit from your answer.

Below: 10 compounds and their reported GI50.
compound	GI50 / µM
COc1cc2c(cc1O)CC[C@@H]1[C@@H]2CC[C@]2(C)[C@@H](O)CC[C@@H]12 [2-METHOXYESTRADIOL]	0.47
C=C1CC[C@H]2[C@@H]3CCc4cc(O)c(OCC)cc4[C@H]3CC[C@]12C	0.6
COc1cc2c(cc1O)CC[C@@H]1[C@@H]2CC[C@@]2(C)[C@H]1CC[C@]2(C)O	2.8
C/C(COc1cc2c(cc1O)CC[C@@H]1[C@@H]2CC[C@]2(C)[C@@H](O)CC[C@@H]12)=N/O	18.2
C[C@]12CC[C@@H]3c4ccc(O)cc4CCC3[C@@H]1CCC2(F)F (single isomer, unassigned)	14.5
C[C@]12CC[C@@H]3c4cc(C(F)(F)C(F)(F)F)c(O)cc4CC[C@H]3[C@@H]1CC[C@@H]2O	17.8
COc1cc2c(cc1O)CC[C@@H]1[C@@H]2CC[C@@]2(C)[C@H]1CC[C@]2(C)[C@H](O)c1ccccc1	17
COc1cc2c(cc1O)CC[C@@H]1[C@@H]2CC[C@@]2(C)[C@H]1CC[C@@]2(O)C(F)(F)F	22.4
CCOc1cc2c(cc1O)CC[C@@H]1[C@@H]2CC[C@@]2(C)[C@H]1CC[C@]2(C)O	3.5
COCc1cc2c(cc1O)CC[C@@H]1[C@@H]2CC[C@]2(C)[C@@H](O)CC[C@@H]12	33.1

I have this compound here, `C[C@]12CC[C@@H]3c4cc(/C=N/C5CC5)c(O)cc4CC[C@H]3[C@@H]1CC[C@@H]2O` , and I need its recorded GI50.
12.3

Would you mind telling me what GI50 value was observed for `CC#Cc1cc2c(cc1O)CC[C@@H]1[C@@H]2CC[C@@]2(C)[C@H]1CC[C@]2(C)O` ?
4.3

Please report the recorded GI50 for `CC(=O)Oc1cc2c(cc1C(C)(F)F)[C@H]1CC[C@]3(C)[C@@H](OC(C)=O)CC[C@H]3[C@@H]1CC2` .
10.7

Could you tell me which GI50 is on file for `C=CCc1cc2c(cc1O)CC[C@@H]1[C@@H]2CC[C@]2(C)[C@@H](O)CC[C@@H]12` ?
14.1

I would be grateful if you could share the reported GI50 for `C[C@]12CC[C@@H]3c4cc(CO)c(O)cc4CC[C@H]3[C@@H]1CC[C@@H]2O` .
74.1

// lookup GI50 for `CN(C)CCC/N=C/c1cc2c(cc1O)CC[C@@H]1[C@@H]2CC[C@]2(C)[C@@H](O)CC[C@@H]12`
12.6
